# maps each entry to its koff
- Target under test: T1, His-tagged CEACAM1 (human, UniProt P13688 35-428)
- T1 construct: 45 kDa SPR analyte; also called CEACAM1-HIS; CEACAM1 analyte
- T1 sequence: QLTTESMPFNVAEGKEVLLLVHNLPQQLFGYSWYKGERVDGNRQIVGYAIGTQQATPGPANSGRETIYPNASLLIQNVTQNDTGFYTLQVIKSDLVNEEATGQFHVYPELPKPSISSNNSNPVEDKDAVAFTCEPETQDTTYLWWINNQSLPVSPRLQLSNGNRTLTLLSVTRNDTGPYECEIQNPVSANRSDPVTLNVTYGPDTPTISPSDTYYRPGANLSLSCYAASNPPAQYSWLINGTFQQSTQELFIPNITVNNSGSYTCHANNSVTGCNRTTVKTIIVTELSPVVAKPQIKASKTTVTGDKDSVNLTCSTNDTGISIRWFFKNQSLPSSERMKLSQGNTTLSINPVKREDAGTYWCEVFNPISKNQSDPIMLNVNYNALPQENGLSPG
- Test: SPR multi-cycle, IgG captured
Parameter: koff (s⁻¹)

Binder: VH2/Vκ7 (antibody, IgG4, V domains shown, IgG4 (S241P), kappa) VH: EVQLLESGGGLVQPGGSLRLSCAASGFIFSSHGMSWVRQAPGKGLEWVATISSGGTYTYYPDSVKGRFTISRDNSKNTLYLQMNSLRAEDTAMYYCARHDFDYDAAWFAYWGQGTLVTVSS VL: EIVLTQSPATLSLSPGERATLSCRANSSVSYMYWYQQKPGQAPRPWIYLTSNRATGVPARFSGSGSGTDFTLTISSLEPEDFATYYCQQWSSNPPTFGQGTKLEIK
Readout number: 0.0258
//
Binder: VH2/Vκ11 (antibody, IgG4, V domains shown, IgG4 (S241P), kappa) VH: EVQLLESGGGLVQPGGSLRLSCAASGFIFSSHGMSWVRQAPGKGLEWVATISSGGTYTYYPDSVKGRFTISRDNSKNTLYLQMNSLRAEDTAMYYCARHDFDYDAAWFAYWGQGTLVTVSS VL: EIVLTQSPATLSLSPGERATLSCRANSSVSYMYWYQQKPGQAPRPWIYLTSNRATGIPARFSGSGSGTDYTLTISSLEPEDFAVYYCQQWSSNPPTFGQGTKLEIK
Readout number: 0.0289
//
Binder: VH1/Vκ2 (antibody, IgG4, V domains shown, IgG4 (S241P), kappa) VH: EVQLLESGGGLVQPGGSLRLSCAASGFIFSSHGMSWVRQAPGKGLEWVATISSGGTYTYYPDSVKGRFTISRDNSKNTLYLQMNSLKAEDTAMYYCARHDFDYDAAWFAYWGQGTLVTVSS VL: EIVLTQSPATLSLSPGERATLSCRANSSVSYMYWYQQKPGQAPRPWIYLTSNRATGVPARFSGSGSGTDYTLTISSLEPEDFATYYCQQWSSNPPTFGQGTKLEIK
Readout number: 0.0503
//
Binder: VH2/Vκ8 (antibody, IgG4, V domains shown, IgG4 (S241P), kappa) VH: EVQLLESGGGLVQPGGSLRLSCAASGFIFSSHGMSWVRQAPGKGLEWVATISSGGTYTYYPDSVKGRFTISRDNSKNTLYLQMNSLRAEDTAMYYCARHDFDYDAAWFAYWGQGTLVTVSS VL: EIVLTQSPATLSLSPGERATLSCRANSSVSYMYWYQQKPGQAPRPWIYLTSNRATGVPARFSGSGSGTDYTLTISSLEPEDFAVYYCQQWSSNPPTFGQGTKLEIK
Readout number: 0.0417
//
Binder: VH1/Vκ9 (antibody, IgG4, V domains shown, IgG4 (S241P), kappa) VH: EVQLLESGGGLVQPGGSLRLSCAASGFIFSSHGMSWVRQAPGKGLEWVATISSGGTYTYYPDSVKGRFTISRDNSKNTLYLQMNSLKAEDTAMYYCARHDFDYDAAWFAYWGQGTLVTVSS VL: EIVLTQSPATLSLSPGERATLSCRANSSVSYMYWYQQKPGQAPRPLIYLTSNRATGVPARFSGSGSGTDYTLTISSLEPEDFATYYCQQWSSNPPTFGQGTKLEIK
Readout number: 0.0504
